Please respond with reported IC50 for every item in the list.
- assayed system: α4β1 integrin (Homo sapiens, UniProt P05556+P13612)
- Construct: screened against live Jurkat cells (α4β1 integrin-positive); endogenous in cells; host or cells: Jurkat T-leukemia cells
- Sequence (P13612 34-1032): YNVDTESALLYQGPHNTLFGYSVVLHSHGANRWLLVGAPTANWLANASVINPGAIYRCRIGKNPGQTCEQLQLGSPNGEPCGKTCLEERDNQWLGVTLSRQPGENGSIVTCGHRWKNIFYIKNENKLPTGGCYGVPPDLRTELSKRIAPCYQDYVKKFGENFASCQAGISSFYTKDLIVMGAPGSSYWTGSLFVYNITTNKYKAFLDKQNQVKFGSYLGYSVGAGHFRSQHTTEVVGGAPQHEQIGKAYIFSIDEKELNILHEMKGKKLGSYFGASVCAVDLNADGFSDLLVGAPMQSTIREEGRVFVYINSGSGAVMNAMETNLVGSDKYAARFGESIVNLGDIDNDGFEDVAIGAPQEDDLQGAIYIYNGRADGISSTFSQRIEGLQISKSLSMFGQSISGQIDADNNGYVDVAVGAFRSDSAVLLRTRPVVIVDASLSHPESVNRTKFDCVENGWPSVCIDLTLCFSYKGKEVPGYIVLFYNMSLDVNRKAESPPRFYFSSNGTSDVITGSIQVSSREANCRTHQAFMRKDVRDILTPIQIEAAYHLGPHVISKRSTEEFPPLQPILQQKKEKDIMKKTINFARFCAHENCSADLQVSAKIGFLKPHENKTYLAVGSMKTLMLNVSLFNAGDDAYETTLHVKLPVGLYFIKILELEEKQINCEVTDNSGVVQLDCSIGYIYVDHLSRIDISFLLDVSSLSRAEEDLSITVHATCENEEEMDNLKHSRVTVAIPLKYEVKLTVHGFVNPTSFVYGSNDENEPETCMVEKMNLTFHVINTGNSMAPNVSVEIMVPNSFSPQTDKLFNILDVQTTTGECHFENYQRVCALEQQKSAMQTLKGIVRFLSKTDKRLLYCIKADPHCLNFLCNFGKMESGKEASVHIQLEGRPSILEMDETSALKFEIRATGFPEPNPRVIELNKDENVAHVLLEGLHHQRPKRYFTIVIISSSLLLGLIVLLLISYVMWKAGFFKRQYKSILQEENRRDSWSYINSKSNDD
- Sequence (P05556 21-798): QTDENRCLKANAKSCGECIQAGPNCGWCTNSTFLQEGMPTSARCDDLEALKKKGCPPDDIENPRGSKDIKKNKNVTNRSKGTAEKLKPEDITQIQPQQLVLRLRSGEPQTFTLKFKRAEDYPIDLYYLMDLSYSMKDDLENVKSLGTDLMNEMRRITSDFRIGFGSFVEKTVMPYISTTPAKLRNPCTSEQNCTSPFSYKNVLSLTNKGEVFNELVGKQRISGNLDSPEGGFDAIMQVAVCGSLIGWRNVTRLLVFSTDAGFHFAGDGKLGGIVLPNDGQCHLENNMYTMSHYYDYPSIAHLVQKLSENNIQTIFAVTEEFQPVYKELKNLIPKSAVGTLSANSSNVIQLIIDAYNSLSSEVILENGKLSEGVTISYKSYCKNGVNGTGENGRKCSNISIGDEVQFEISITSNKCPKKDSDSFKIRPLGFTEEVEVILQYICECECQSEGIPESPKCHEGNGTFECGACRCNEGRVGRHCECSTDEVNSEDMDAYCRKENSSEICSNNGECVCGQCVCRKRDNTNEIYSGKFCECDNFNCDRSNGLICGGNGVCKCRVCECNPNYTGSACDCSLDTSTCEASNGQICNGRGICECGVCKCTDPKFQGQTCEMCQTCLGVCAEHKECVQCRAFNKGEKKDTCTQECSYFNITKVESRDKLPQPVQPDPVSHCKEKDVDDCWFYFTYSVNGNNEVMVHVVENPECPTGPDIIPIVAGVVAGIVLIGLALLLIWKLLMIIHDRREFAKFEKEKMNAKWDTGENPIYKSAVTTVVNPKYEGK
- measurement notes: Cell-based α4β1-mediated adhesion assay: inhibition of Jurkat cell adhesion to immobilized CS-1 peptide (IC50)
Numbered stars: 1 amine (or outer) side, 2 acyl side, 3 side chain; on linkers, the order of the positions; unused ones are H or OH. Square brackets hold non-standard residues; d marks the D form. Peptide text beside a SMILES is read from it. * marks the point of attachment. Acryloyl(3-(3-pyridyl),E) = O=C(/C=C/c1cccnc1)*; dBpa = N[C@H](Cc1ccc(C(=O)c2ccccc2)cc1)C(=O)O; d2Nal = N[C@H](Cc1ccc2ccccc2c1)C(=O)O; Ala(cPr) = N[C@@H](CC1CC1)C(=O)O; Hyp = O=C(O)[C@@H]1C[C@@H](O)CN1; X1 = O=C(Cc1ccc(N[*:1])cc1)[*:2]; d3Pal = N[C@H](Cc1cccnc1)C(=O)O; Aad = N[C@@H](CCCC(=O)O)C(=O)O; Cha = N[C@@H](CC1CCCCC1)C(=O)O; NH(2-Me-phenyl) = Cc1ccccc1N*; Chg = N[C@H](C(=O)O)C1CCCCC1; Nle = CCCC[C@H](N)C(=O)O; Ac5c = NC1(C(=O)O)CCCC1; Ac3c = NC1(C(=O)O)CC1; CO = O=C([*:1])[*:2]
Provide the reading as a plain figure in nM.

Lookup: // fetch IC50 given entry Cc1ccccc1NC(=O)Nc1ccc(CC(=O)N[C@@H](CCCCNC(=O)/C=C/c2cccnc2)C(=O)N[C@@H](CCCC(=O)O)C(=O)N[C@H](Cc2ccccc2)C(=O)N[C@H](Cc2cccnc2)C(N)=O)cc1 [7A] ({NH(2-Me-phenyl)-CO}-[X1]K(Acryloyl(3-(3-pyridyl),E))[Aad][dF][d3Pal]-NH2)
Found: 4

Lookup: Report IC50 for Cc1ccccc1NC(=O)Nc1ccc(CC(=O)N[C@@H](CCCCNC(=O)/C=C/c2cccnc2)C(=O)N[C@@H](CCCC(=O)O)C(=O)N[C@@H](Cc2ccccc2)C(N)=O)cc1 [14A]
Found: 0.2

Lookup: Return value of IC50 for input Cc1ccccc1NC(=O)Nc1ccc(CC(=O)N[C@@H](CCCCNC(=O)/C=C/c2cccnc2)C(=O)N[C@@H](CCCC(=O)O)C(=O)NC2(C(=O)N[C@H](CC(=O)O)C(N)=O)CC2)cc1 [3A] ({NH(2-Me-phenyl)-CO}-[X1]K(Acryloyl(3-(3-pyridyl),E))[Aad][Ac3c][dD]-NH2) , no commentary.
Found: 0.5

Lookup: Return IC50 for the following molecule: Cc1ccccc1NC(=O)Nc1ccc(CC(=O)N[C@@H](CCCCNC(=O)/C=C/c2cccnc2)C(=O)N[C@@H](CCCC(=O)O)C(=O)N[C@H](Cc2ccc3ccccc3c2)C(=O)N[C@@H](C(=O)N[C@H](Cc2ccc(C(=O)c3ccccc3)cc2)C(N)=O)[C@H](C)O)cc1 [11A] ({NH(2-Me-phenyl)-CO}-[X1]K(Acryloyl(3-(3-pyridyl),E))[Aad][d2Nal][dT][dBpa]-NH2)
Found: 77.5

Lookup: Hello, please tell me recorded IC50 for this one: CCCC[C@H](NC(=O)Cc1ccc(NC(=O)Nc2ccccc2C)cc1)C(=O)N[C@@H](CCCC(=O)O)C(=O)N[C@@H](CC1CCCCC1)C(=O)N[C@H](CCC(=O)O)C(N)=O [8A] ({NH(2-Me-phenyl)-CO}-[X1][Nle][Aad][Cha][dE]-NH2)
Found: 0.75

Lookup: Give the reported IC50 for this molecule. Cc1ccccc1NC(=O)Nc1ccc(CC(=O)N[C@@H](CCCCNC(=O)/C=C/c2cccnc2)C(=O)N[C@@H](CCCC(=O)O)C(=O)N[C@H](Cc2ccccc2)C(=O)N[C@H](CC(=O)O)C(N)=O)cc1 [4A] ({NH(2-Me-phenyl)-CO}-[X1]K(Acryloyl(3-(3-pyridyl),E))[Aad][dF][dD]-NH2)
Found: 0.4

Lookup: Indicate its recorded IC50; the molecule in question is CCCC[C@H](NC(=O)Cc1ccc(NC(=O)Nc2ccccc2C)cc1)C(=O)N[C@@H](CCCC(=O)O)C(=O)N[C@H](C(=O)N1C[C@H](O)C[C@H]1C(=O)N[C@@H](CCCC(=O)O)C(N)=O)C1CCCCC1 [9A] ({NH(2-Me-phenyl)-CO}-[X1][Nle][Aad][Chg][Hyp][Aad]-NH2)
Found: 1.45

Lookup: Return value of IC50 for input Cc1ccccc1NC(=O)Nc1ccc(CC(=O)N[C@@H](CC2CC2)C(=O)N[C@@H](CCCC(=O)O)C(=O)N[C@H](C(=O)NC2(C(=O)N[C@H](CC(=O)O)C(=O)N[C@H](CCC(=O)O)C(N)=O)CCCC2)C2CCCCC2)cc1 [10A] ({NH(2-Me-phenyl)-CO}-[X1][Ala(cPr)][Aad][Chg][Ac5c][dD][dE]-NH2) , no commentary.
Found: 0.53

// data source = patent US7576175B2
